Molecular target: T1, Human Id3: Histidine (human, UniProt Q02535 1-119 at identity 1.00))
T1 construct: Fusion protein made in E. coli from vector pGW07; also called h-Id3: His; Human Id3 (coated wells); not shown: His tag
T1 chain: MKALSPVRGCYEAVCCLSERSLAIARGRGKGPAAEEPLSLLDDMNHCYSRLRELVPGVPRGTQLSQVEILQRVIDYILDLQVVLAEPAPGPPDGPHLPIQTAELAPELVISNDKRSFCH
Assay: ELISA, Ab 0.050 µg/ml
Description: The rabbit monoclonal anti-human Id3 (clone #3-3) and the rabbit monoclonal anti-mouse/human Id3 (clones #6-1, 16-1, 17-3, and 42-1) produced in Example 6 were tested reactivity against the following antigens: mouse Id1:His, human Id1:His, mouse Id2:His, human Id2:His, mouse Id3:His, human Id3:His, mouse Id4:His, human Id4:His and GST. 1. […]
PARAMETER: A450 (A450)
Report as a plain number; the unit A450 is understood.

Worked cases, A450 given:
BINDER	DATA_VALUE
rabbit monoclonal anti-mouse/human Id3, clone #BCH-4/#6-1 (antibody, V domains shown, Rabbit IgG from a rabbit hybridoma; also called m/h Id3 MoAb 6-1) VH: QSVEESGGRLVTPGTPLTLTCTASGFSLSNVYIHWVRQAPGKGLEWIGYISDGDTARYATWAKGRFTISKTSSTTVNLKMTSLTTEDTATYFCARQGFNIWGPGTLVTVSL VL: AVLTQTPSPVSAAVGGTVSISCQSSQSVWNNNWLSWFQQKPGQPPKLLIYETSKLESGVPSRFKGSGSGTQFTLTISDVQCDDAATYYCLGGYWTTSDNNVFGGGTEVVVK	1.61
rabbit monoclonal anti-mouse/human Id3, clone #BCH-4/#42-1 (antibody, V domains shown, Rabbit IgG from a rabbit hybridoma; also called m/h Id3 MoAb 42-1) VH: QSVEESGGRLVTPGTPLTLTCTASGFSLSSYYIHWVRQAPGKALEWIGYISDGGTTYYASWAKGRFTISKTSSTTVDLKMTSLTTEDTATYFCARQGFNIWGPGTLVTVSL VL: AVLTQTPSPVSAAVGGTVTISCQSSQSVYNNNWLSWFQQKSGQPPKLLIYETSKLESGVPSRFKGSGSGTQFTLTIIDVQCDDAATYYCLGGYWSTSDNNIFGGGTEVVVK	2
rabbit monoclonal anti-mouse/human Id3, clone #BCH-4/#16-1 (antibody, V domains shown, Rabbit IgG from a rabbit hybridoma; also called m/h Id3 MoAb 16-1) VH: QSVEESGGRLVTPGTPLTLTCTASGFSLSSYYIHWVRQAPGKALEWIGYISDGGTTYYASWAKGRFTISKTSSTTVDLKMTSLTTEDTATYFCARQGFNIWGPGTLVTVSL VL: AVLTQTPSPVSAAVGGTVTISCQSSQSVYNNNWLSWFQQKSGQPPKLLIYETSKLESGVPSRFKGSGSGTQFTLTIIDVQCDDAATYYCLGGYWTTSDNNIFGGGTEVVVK	1.4

Alright, here's another binder for you.
Request: A450 lookup needed for rabbit monoclonal anti-mouse/human Id3, clone #BCH-4/#17-3 (antibody, V domains shown, Rabbit IgG from a rabbit hybridoma; also called m/h Id3 MoAb 17-3; BCH-3/#17-3) VH: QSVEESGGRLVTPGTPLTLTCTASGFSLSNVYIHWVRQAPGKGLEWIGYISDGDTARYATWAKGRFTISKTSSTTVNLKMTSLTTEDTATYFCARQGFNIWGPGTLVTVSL VL: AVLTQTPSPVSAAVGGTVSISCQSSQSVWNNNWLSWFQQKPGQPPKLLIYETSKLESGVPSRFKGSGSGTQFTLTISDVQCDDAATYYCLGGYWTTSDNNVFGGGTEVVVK , thanks.
Result: 1.8
